Origin of values: PubChem BioAssay (NCI)

# System: OVCAR-8 ovarian
# PROTOCOL DESCRIPTION: NCI tumour cell line growth inhibition, 48 h
Label TRUE when TGI is at or above 30 µM; anything below gets FALSE.

Completed entries (count: 6):
CCN(Cc1cccc(OC)c1)c1ccc(CO)c(Cl)c1
TRUE
Nc1cc2ncnc(Nc3cccc(Br)c3)c2cn1
TRUE
c1ccc2c(c1)ccc1nc(-c3ccc4c(c3)OCO4)c3c(c12)CCC3
TRUE
COc1ccc(-c2cc(-c3ccc(OC)c(OC)c3)nc(SCCCC(=O)NO)n2)cc1
TRUE
CCCC[C@H]1C(=O)O[C@H](C)[C@H](NC(=O)c2cccc(NC=O)c2O)C(=O)O[C@@H](C)[C@@H]1OC(=O)CC(C)C
TRUE
CCOP(=O)(OCC)C(NC(c1ccccc1)c1ccccc1)c1ccccc1 (configuration not stated)
TRUE

Form field: TGI at least 30 µM? Entry: COc1ccccc1-[n+]1cc(-c2ccc(-c3ccccc3)cc2)n2c1CCCCC2
FALSE

Form field: TGI at least 30 µM? Entry: CCCCn1c2cc(OCc3cn(-c4ccc(Cl)cc4)nn3)ccc2c2ccnc(C)c21
FALSE

Form field: TGI at least 30 µM? Entry: C/C(=C\COP(=O)(O)OP(=O)(O)O)CC/C=C(\C)CNc1ccccc1
TRUE

Form field: TGI at least 30 µM? Entry: CCOC(=O)CC(=O)Sc1ccccc1
TRUE

Form field: TGI at least 30 µM? Entry: O=C1CCc2cc3c(cc21)C(C(=O)O)CC3 (configuration not stated)
TRUE
